Tested on: Nucleic Acid
METHOD NOTES: Binding affinity to human Duplex DNA of sequence 5'-FAM-dTATAGCTATA-HEG-TATAGCTATA-TAMRA-3' assessed as change in melting temperature by FRET DNA melting assay; note: test concentration or dose not given here
Format: nucleic-acid assay

| COMPOUND STRING | RESULT UNIT | ΔTm |
| --- | --- | --- |
| CN(C)CCC(=O)Nc1ccc(NC(=O)c2cccc3c(=O)c4cccc(C(=O)Nc5ccc(NC(=O)CCN(C)C)cc5)c4[nH]c23)cc1 | °C | 2.5 |
| CN1CCN(CCCNc2ccc(NC(=O)c3cccc4c(=O)c5cccc(C(=O)Nc6ccc(NCCCN7CCN(C)CC7)cc6)c5[nH]c34)cc2)CC1 | °C | 1.5 |
| CN(C)CCCNC(=O)c1cccc2c(=O)c3cccc(C(=O)NCCCN(C)C)c3[nH]c12 | °C | 1 |
| O=C(Nc1ccc(NCCCN2CCOCC2)cc1)c1cccc2c(=O)c3cccc(C(=O)Nc4ccc(NCCCN5CCOCC5)cc4)c3[nH]c12 | °C | 0 |
| O=C(CCN1CCCC1)Nc1cccc(NC(=O)c2cccc3c(=O)c4cccc(C(=O)Nc5cccc(NC(=O)CCN6CCCC6)c5)c4[nH]c23)c1 | °C | 3 |
| O=C(CCNC1CCCCC1)Nc1ccc(NC(=O)c2cccc3c(=O)c4cccc(C(=O)Nc5ccc(NC(=O)CCNC6CCCCC6)cc5)c4[nH]c23)cc1 | °C | 0 |
| O=C(CCCN1CCCC1)Nc1ccc(NC(=O)c2cccc3c(=O)c4cccc(C(=O)Nc5ccc(NC(=O)CCCN6CCCC6)cc5)c4[nH]c23)cc1 | °C | 0 |
| CN(C)CCCNc1ccc(NC(=O)c2cccc3c(=O)c4cccc(C(=O)Nc5ccc(NCCCN(C)C)cc5)c4[nH]c23)cc1 | °C | 2.5 |
| O=C(CCC(=O)N1CCCC1)Nc1ccc(NC(=O)c2cccc3c(=O)c4cccc(C(=O)Nc5ccc(NC(=O)CCC(=O)N6CCCC6)cc5)c4[nH]c23)cc1 | °C | 0 |
| O=C(CCn1ccnc1)Nc1ccc(NC(=O)c2cccc3c(=O)c4cccc(C(=O)Nc5ccc(NC(=O)CCn6ccnc6)cc5)c4[nH]c23)cc1 | °C | 0.5 |
| O=C(Nc1ccc(NCCCN2CCCC2)cc1)c1cccc2c(=O)c3cccc(C(=O)Nc4ccc(NCCCN5CCCC5)cc4)c3[nH]c12 | °C | 2.5 |
| O=C(CN1CCCC1)Nc1ccc(NC(=O)c2cccc3c(=O)c4cccc(C(=O)Nc5ccc(NC(=O)CN6CCCC6)cc5)c4[nH]c23)cc1 | °C | 0.5 |
| O=C(CCN1CCOCC1)Nc1ccc(NC(=O)c2cccc3c(=O)c4cccc(C(=O)Nc5ccc(NC(=O)CCN6CCOCC6)cc5)c4[nH]c23)cc1 | °C | 0 |
| O=C(CCN1CCCCC1)Nc1ccc(NC(=O)c2cccc3c(=O)c4cccc(C(=O)Nc5ccc(NC(=O)CCN6CCCCC6)cc5)c4[nH]c23)cc1 | °C | 1.5 |
| CN1CCN(CCC(=O)Nc2ccc(NC(=O)c3cccc4c(=O)c5cccc(C(=O)Nc6ccc(NC(=O)CCN7CCN(C)CC7)cc6)c5[nH]c34)cc2)CC1 | °C | 1.5 |
| O=C(CCN1CCCC1)Nc1ccc(NC(=O)c2cccc3c(=O)c4cccc(C(=O)Nc5ccc(NC(=O)CCN6CCCC6)cc5)c4[nH]c23)cc1 | °C | 2.5 |
| O=C(CCCCN1CCCC1)Nc1ccc(NC(=O)c2cccc3c(=O)c4cccc(C(=O)Nc5ccc(NC(=O)CCCCN6CCCC6)cc5)c4[nH]c23)cc1 | °C | 0.75 |
| Cn1cc(NC(=O)c2cccc3c(=O)c4cccc(C(=O)Nc5cc(C(=O)NCCCN6CCCC6)n(C)c5)c4[nH]c23)cc1C(=O)NCCCN1CCCC1 | °C | 0 |
| O=C(CCN1CCCC1)Nc1ccc(NC(=O)c2cccc3c(=O)c4ccccc4[nH]c23)cc1 | °C | 0.5 |

From: ChEMBL document CHEMBL1155326
